# SYSTEM TESTED: recombinant human MAO-B (Homo sapiens)
# Construct: purchased Sigma-Aldrich
# Sequence (P27338 whole entry): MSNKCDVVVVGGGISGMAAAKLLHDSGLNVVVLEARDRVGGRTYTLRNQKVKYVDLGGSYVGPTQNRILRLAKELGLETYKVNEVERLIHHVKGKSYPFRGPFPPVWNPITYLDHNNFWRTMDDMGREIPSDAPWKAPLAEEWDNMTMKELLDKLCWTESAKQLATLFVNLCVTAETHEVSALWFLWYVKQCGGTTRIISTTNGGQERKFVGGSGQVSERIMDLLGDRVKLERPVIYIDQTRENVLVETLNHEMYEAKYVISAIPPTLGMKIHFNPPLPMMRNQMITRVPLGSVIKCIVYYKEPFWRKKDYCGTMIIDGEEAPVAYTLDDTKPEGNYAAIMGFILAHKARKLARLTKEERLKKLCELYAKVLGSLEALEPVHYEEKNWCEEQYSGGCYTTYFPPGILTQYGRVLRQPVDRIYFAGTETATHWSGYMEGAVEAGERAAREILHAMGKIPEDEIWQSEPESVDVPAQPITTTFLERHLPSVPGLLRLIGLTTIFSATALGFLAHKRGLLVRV
# ASSAY NOTES: Human MAO-B inhibitory assay (kynuramine, fluorescence of 4-hydroxyquinoline)
# Type: biochemical
# EXPERIMENTAL SETUP: ratio of Ki values; MAO-B
MEASURED PARAMETER: Si MAO-B (selectivity index between MAO-A and MAO-B)
Give the figure only, with no unit attached.

[ask] Quick one: Si MAO-B (selectivity index between MAO-A and MAO-B) of COc1cc(-c2cc(=O)c3c(O)c([C@H]4C[C@H](O)[C@@H](O)[C@@H](C)O4)c(O)cc3o2)ccc1O [Compound 1a, altheranthin] ?
[reply] 2.1364

[ask] Here is the next compound: COc1cc(-c2cc(=O)c3c(O)cc(O[C@@H]4O[C@@H](C)[C@H](O)[C@@H](O)[C@H]4O)cc3o2)ccc1O [Compound 5, chrysoeriol 7-O-rhamnoside]
[reply] 0.2915

[ask] Next compound: C[C@H]1O[C@@H](c2c(O)cc3oc(-c4ccc(O)c(O)c4)cc(=O)c3c2O)C[C@H](O)[C@H]1O [Compound 1b, alternanthin B]
[reply] 0.1764

[ask] Then this compound: O=C(O)/C=C/c1c(O)cc2oc(-c3ccc(O)c(O)c3)cc(=O)c2c1O [Compound 3b, demethyltorosaflavone D]
[reply] 0.4193

[ask] Next: COc1cc(-c2cc(=O)c3c(O)c(/C=C/C(=O)O)c(O)cc3o2)ccc1O [Compound 3a, torosaflavone E]
[reply] 0.0601
